assay: passive permeability, PAMPA, ADME assay (AID 1508612); details: pH 7.4, 30.0 min, 50.0 µM
Below, each of the compounds is paired with its reported Papp value.
assay metric: Papp (×10⁻⁶ cm/s)

{"compound": "CCCCc1ccc(NC(=O)c2ccc3c(c2)N(S(C)(=O)=O)CC3)cc1", "readout relation": "=", "data value": 706}
{"compound": "CNc1oc(-c2ccccc2-c2ccccc2)nc1C#N", "readout relation": "=", "data value": 906}
{"compound": "S=C(NCCCc1cnc[nH]1)NCCCN(Cc1ccc(Cl)c(Cl)c1)c1ccc(Br)cn1", "readout relation": "=", "data value": 14}
{"compound": "O=c1c(O)c(-c2ccc(O)cc2)oc2cc(O)cc(O)c12", "readout relation": "=", "data value": 46.6}
{"compound": "CNc1oc(-c2cccc(Cl)c2Cl)nc1C#N", "readout relation": "=", "data value": 505}
{"compound": "COc1ccc(C2(C(=O)N3CCC(n4cc(-c5nc(C)no5)nn4)CC3)CC2)cc1", "readout relation": "=", "data value": 34.9}
{"compound": "COc1cccc(CN2CCCC(c3nc(-c4ccncc4)ncc3-c3ccccc3)C2)c1O (configuration not stated)", "readout relation": ">", "data value": 1000}
{"compound": "NC(=O)C1CCN(c2ncc(-c3ccc4c(c3)OCCO4)s2)CC1", "readout relation": "=", "data value": 710}
{"compound": "COc1ccc(-c2nc(CS(=O)CC(=O)N3CCC4(CC3)OCCO4)c(C)o2)cc1 (configuration not stated)", "readout relation": "=", "data value": 91.7}
{"compound": "C[C@@H]1CC(=O)Nc2cccc(-c3cnn(C(C)(C)C)c3)c2N1", "readout relation": "=", "data value": 56.5}
{"compound": "O=[S+]([O-])(Nc1nccs1)c1ccc(NCc2cccc3c2NCC3)cc1", "readout relation": "=", "data value": 18.9}
{"compound": "COc1ccc(-n2nc(C3CCN(C(=O)c4ccccc4)CC3)[nH]c2=O)cc1", "readout relation": "=", "data value": 331}
{"compound": "Cc1ccc(S(=O)(=O)c2cnc(SC(C)C(=O)Nc3ccccc3)[nH]c2=O)cc1 (configuration not stated)", "readout relation": "=", "data value": 1.2}
{"compound": "CC(=O)N1CCc2c(sc3c2c(=O)n(-c2ccccc2Cl)c(=O)n3Cc2cccc(C)c2)C1", "readout relation": "=", "data value": 338}
{"compound": "NC(=O)C1CCN(c2ncc(Br)cn2)CC1", "readout relation": "=", "data value": 61.5}
{"compound": "NC(=O)C1CCN(c2nc(-c3ccccc3-c3ccccc3)cs2)CC1", "readout relation": "=", "data value": 606}
{"compound": "FC(F)(F)Oc1cccc(Nc2nc(-c3ccncc3)nc3ccccc23)c1", "readout relation": "=", "data value": 226}
{"compound": "CC(C)c1ccccc1-c1ncc(F)c(NCC2CCN(c3cnccn3)C2)n1 (configuration not stated)", "readout relation": ">", "data value": 1000}
{"compound": "Fc1ccc(CNc2nc(-c3ccncc3)nc3ccccc23)cc1F", "readout relation": "=", "data value": 569}
{"compound": "Cc1cn2c(N)c(Cl)cc(C(=O)NCC3CCN(CC(C)C)CC3)c2n1", "readout relation": "=", "data value": 606}
{"compound": "COc1ccc(NC(=O)CCCc2nnc3n(CCC(C)C)c(=O)c4sccc4n23)cc1Cl", "readout relation": ">", "data value": 1000}
{"compound": "Fc1ccccc1Nc1nc(-c2ccncc2)nc2ccccc12", "readout relation": "=", "data value": 839}
